// reported MIC for each item listed
system: Escherichia coli; test: Antibacterial activity against Escherichia coli ATCC 25922 assessed as inhibition of bacterial growth incubated for 24 hrs by CLSI based broth dilution method; type: functional

C=C[C@@](C)(/C=C/c1ccc(OCCCCNCCCCCCCC)cc1)CCC=C(C)C ... > 100 µg/mL
C=C[C@@](C)(/C=C/c1ccc(OCCCCN(Cc2ccccn2)Cc2ccccn2)cc1)CCC=C(C)C ... > 100 µg/mL
C=C[C@@](C)(/C=C/c1ccc(OCCCCNCCSC)cc1)CCC=C(C)C ... 50 µg/mL

Ask: Which MIC value is on record for C=C[C@@](C)(/C=C/c1ccc(OCCCCNCCCCCCCCCC)cc1)CCC=C(C)C ?
Result: > 100 µg/mL

Ask: Next up: C=C[C@@](C)(/C=C/c1ccc(OCCCCN(CCCN(C)C)CCCN(C)C)cc1)CCC=C(C)C
Result: 3.12 µg/mL

Ask: Do the same for C=C[C@@](C)(/C=C/c1ccc(OCCCC[N+](C)(CCCC)CCCC)cc1)CCC=C(C)C.[I-] please
Result: 12.5 µg/mL

Ask: Same again, this time with C=C[C@@](C)(/C=C/c1ccc(OCCCC[N+](C)(CC)CC)cc1)CCC=C(C)C.[I-]
Result: 12.5 µg/mL

Ask: Next compound up: C=C[C@@](C)(/C=C/c1ccc(OCCCCNCCCCCC)cc1)CCC=C(C)C
Result: 100 µg/mL

Ask: Also C=C[C@@](C)(/C=C/c1ccc(OCCCCNCCCC)cc1)CCC=C(C)C ?
Result: 12.5 µg/mL

Ask: Moving on to the next compound: C=C[C@@](C)(/C=C/c1ccc(OCCCCN(C)CCCNC)cc1)CCC=C(C)C
Result: 1.56 µg/mL

Ask: Input C=C[C@@](C)(/C=C/c1ccc(OCCCN(C)C)cc1)CCC=C(C)C
Result: > 100 µg/mL

Ask: Here is the next compound: C=C[C@@](C)(/C=C/c1ccc(OCCCCCCCCCCBr)cc1)CCC=C(C)C
Result: > 100 µg/mL

Ask: // repeat for C=C[C@@](C)(/C=C/c1ccc(OCCCBr)cc1)CCC=C(C)C and report
Result: > 100 µg/mL

----------
MIC overview
system: Klebsiella pneumoniae; test: Antibacterial activity against Klebsiella pneumoniae ATCC 14581 assessed as inhibition of bacterial growth incubated for 24 hrs by CLSI based broth dilution method; format: functional
Respond with the bare value in µg/mL.

Field: example entries. Status: answers known.
C=C[C@@](C)(/C=C/c1ccc(OCCCCN(C)CCCN(C)CCCNC)cc1)CCC=C(C)C ... 1.56
C=C[C@@](C)(/C=C/c1ccc(OCCCCN2CCCNCCNCCCNCC2)cc1)CCC=C(C)C ... 3.12
C=C[C@@](C)(/C=C/c1ccc(OCCCCN(C)CCCN(C)C)cc1)CCC=C(C)C ... 1.56

Ask: Any idea what its MIC is? The compound is C=C[C@@](C)(/C=C/c1ccc(OCCCCN(CCCN(C)C)CCCN(C)C)cc1)CCC=C(C)C
Result: 3.12

Ask: How about C=C[C@@](C)(/C=C/c1ccc(OCCCCNCCN(CCN)CCN)cc1)CCC=C(C)C ?
Result: 1.56

Ask: Entry C=C[C@@](C)(/C=C/c1ccc(OCCCCN(C)CCCNC)cc1)CCC=C(C)C please
Result: 3.12

Ask: Now try C=C[C@@](C)(/C=C/c1ccc(OCCCCN2CCN(CCCN(C)C)CC2)cc1)CCC=C(C)C .
Result: 1.56
